- Test system: ROCK2
- Experimental conditions: concentration: 1 μM,replicates: in singlicate; n = 1;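 note: KINOMEscan kinase panel screen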
Reported metric: %Inh (%)
Numbers only, in %.

Cl.c1ccc(Oc2ccc(Nc3ccnc4cc(-c5ccc(CN6CCNCC6)o5)ccc34)cc2)nc1 :: 32
CS(=O)(=O)c1cccc(CNc2nc(Nc3ccc4c(c3)[C@@H]3C[C@@H]4CNC3=O)ncc2C(F)(F)F)c1 :: 0
C[C@@H](Oc1cc(-n2cnc3ccc(-c4ccncc4)cc32)sc1C(N)=O)c1ccccc1Cl :: 19

Can you give me %Inh for all of these, one by one?
1. N#Cc1cccc(C(=O)NC2CCN(c3ccnc(Nc4ccc(F)cc4)n3)C2)c1 (stereo not drawn)
2. Cn1ccc2ncnc(Oc3ccc(NC(=O)Nc4ccnc(C(F)(F)F)c4)c(Cl)c3)c21
3. Cc1ccc(C(=O)Nc2ccc(Oc3ccc4nc(NC(=O)C5CC5)cn4c3)c(F)c2)c(=O)n1-c1ccccc1

[0, 0, 0]

###

- Tested on: LRRK2
- Experimental conditions: concentration: 1 μM,replicates: in singlicate; n = 1
So I've got a bunch of compounds here, and I need their %Inh values.
Give bare numbers, in %.

Some compounds with known %Inh results, for comparison:
CCN1CCN(CCCC(=O)Nc2n[nH]c3nc(-c4ccc(O)cc4)c(Br)cc23)CC1 :: 0
Cc1ccc2c(-c3ccnc(Nc4ccc(C(F)(F)F)cc4)n3)cnn2n1 :: 0
C[C@@H]1CNc2c(sc3ccc4nc(-c5ccncc5)ccc4c23)C(=O)N1 :: 100
CC(=O)c1c(-c2ccncc2)[nH]c(-c2ccncc2)c1C :: 26
CCOC(=O)N1CCC(n2cnc(-c3ccc(F)cc3)c2-c2ccnc(N)n2)CC1 :: 0

Return reported %Inh values for all items listed beneath this line.
1. O=C(Nc1ccc(Oc2ccc3nc(NC(=O)C4CC4)cn3n2)c(F)c1)c1cccn(-c2ccccc2)c1=O
2. C[C@@H](Oc1cc(-n2cnc3ccc(-c4ccncc4)cc32)sc1C(N)=O)c1ccccc1Cl
3. Cn1ccc2ncnc(Oc3ccc(NC(=O)Nc4cccc(C(F)(F)F)c4)c(F)c3)c21
4. FC(F)(F)c1cc(Br)cc(Nc2nccc(-c3cnn4ncccc34)n2)c1
5. Cn1cc(-c2cccc3c(N)c(C(N)=O)nnc23)cn1

[0, 8, 31, 58, 57]

# batch size: 4; output %Inh per entry
1. CSc1nccc(-c2c(-c3ccc(F)cc3)ncn2CCCN2CCOCC2)n1.Cl
2. Nc1nccc(-c2ccc3c(N)n[nH]c3c2)n1
3. Cn1ccc2ncnc(Oc3ccc(NC(=O)Nc4cccc(C(F)(F)F)c4)c(Cl)c3)c21
4. Cl.Nc1n[nH]c2cc(-c3ccccn3)ccc12

0
0
0
0

###

- Test system: MELK
- Experimental conditions: concentration: 1 μM,replicates: in singlicate; n = 1
Would you mind telling me the reported %Inh of each entry?
One number for each entry, in %.

Cn1ccc2ncnc(Oc3ccc(NC(=O)Nc4cnn(C(C)(C)C)c4)c(Cl)c3)c21 :: 16
C[C@@H]1CCN(C(=O)N2CCCC2)C[C@@H]1N(C)c1ncnc2[nH]ccc12 :: 13

Your task in this section: give %Inh for each listed record.
1. Cn1ccc2ncnc(Oc3ccc(NC(=O)Nc4cncc(C(F)(F)F)c4)c(Cl)c3)c21
2. CN(c1ccc2c(c1)nc(NCc1ccc(F)cc1)n2C)c1ccnc(Nc2ccc(CS(C)(=O)=O)cc2)n1.Cl [GW813244]
3. CCNCC(Cc1ccccc1)NC(=O)c1cc(Br)c(-c2ccnc3[nH]ccc23)s1.Cl.Cl (centres unmarked) [GSK1383280]
4. COc1cc2c(Nc3ccc(NC(=O)c4ccccc4)cc3)ncnc2cc1OCCCN1CCOCC1 [GSK301329]
5. Cc1ccc2c(-c3ccnc(Nc4ccc(C(F)(F)F)cc4)n3)cnn2n1 [GW819776]
6. COc1cc2ncn(-c3cc(OCC4CCCCC4)c(C(N)=O)s3)c2cc1OC [GSK204559]
7. Cc1ccc(Nc2ccnc(Nc3ccc4c(c3)CS(=O)(=O)C4)n2)cc1O.Cl [GW579362]

1. 0
2. 13
3. 97.5
4. 4
5. 0
6. 13
7. 0

Would you mind giving %Inh for every molecule in the list below?
1. CC(C)c1nc(-c2cccc(NS(=O)(=O)c3ccccc3)c2)c(-c2ccnc(Nc3ccc4c(c3)CN(C)CC4)n2)s1 [GSK1649598]
2. COc1cccc(OC)c1C(=O)Nc1cccc(-c2nn3ccccc3c2-c2ccnc(Nc3cccc(F)c3)n2)c1 [GSK361065]

65
0

###

- Test system: TNIK
- Experimental conditions: concentration: 1 μM,replicates: in singlicate; n = 1
Threshold-based label: %Inh under 20% gives Yes, %Inh not under 20% gives No.

Cc1cccc2c(-c3ccncc3)c(-c3ccc(F)cc3)nn12.Cl :: Yes
CN(c1ccc2c(c1)nc(NCc1ccc(F)cc1)n2C)c1ccnc(Nc2ccc(CS(C)(=O)=O)cc2)n1.Cl :: No
Cc1ccc(C(=O)Nc2ccc(Oc3ccc4nc(NC(=O)C5CC5)cn4c3)c(F)c2)c(=O)n1-c1ccccc1 :: Yes
N#Cc1cccc(C(=O)NC2CCN(c3ccnc(Nc4ccc(F)cc4)n3)C2)c1 (centres unmarked) :: Yes
C[C@@H](Oc1cc(-n2cnc3cc(-c4cnn(C)c4)ccc32)sc1C(N)=O)c1ccccc1Cl :: No

# strict comparison: is reported %Inh < 20%? input = Cn1ccc2ncnc(Oc3ccc(NC(=O)Nc4cccc(C(F)(F)F)c4)c(Cl)c3)c21
Yes

Please indicate whether the reported %Inh of CN(c1ccccc1CNc1nc(Nc2ccc3c(c2)CC(=O)N3)ncc1C(F)(F)F)S(C)(=O)=O is strictly below 20%.
Yes

Find out if reported %Inh for CC(C(=O)NC1CCN(c2ccnc(Nc3ccc(F)cc3)n2)C1)c1ccc(Cl)cc1 (centres unmarked) is less than 20%
Yes

###

- Test system: TLK1
- Experimental conditions: concentration: 1 μM,replicates: in singlicate; n = 1
Assignment: determine reported %Inh for the given molecules.
Give bare numbers, in %.

COC(=O)c1cccc(NC(=O)NC2CCN(c3ccnc(Nc4cc(OC)c(OC)c(OC)c4)n3)C2)c1 (centres unmarked) [GSK1379767] :: 14
CN(c1ccc2c(c1)nc(NCc1ccc(F)cc1)n2C)c1ccnc(Nc2ccc(CS(C)(=O)=O)cc2)n1.Cl [GW813244] :: 15
C[C@@H]1CNc2c(sc3ccc4nc(-c5ccncc5)ccc4c23)C(=O)N1 :: 0

Batch of 5 molecules: report %Inh for each.
1. CN1CCN(CCNc2nc3cc(Oc4ccc(NC(=O)Nc5cc(C(F)(F)F)ccc5F)cc4)ccc3[nH]2)CC1.Cl.Cl [GW768504]
2. O=C(NOCC1CC1)c1cc(Br)c(F)c(F)c1Nc1ccc(I)cc1Cl
3. Cc1ccc(CC(=O)N2CCc3cc(-c4cn(C)c5ncnc(N)c45)ccc32)cc1 [GSK2634758]
4. Cl.c1ccc(Oc2ccc(Nc3ccnc4cc(-c5ccc(CN6CCNCC6)o5)ccc34)cc2)nc1 [GW567142]
5. CSc1nccc(-c2c(-c3ccc(F)cc3)ncn2CCCN2CCOCC2)n1.Cl [SB-217146]

1. 0
2. 47
3. 0
4. 9
5. 0

Please give %Inh for each item listed below.
1. CCNCC(Cc1ccccc1)NC(=O)c1cc(Br)c(-c2ccnc3[nH]ccc23)s1.Cl.Cl (centres unmarked) [GSK1383280]
2. COc1cc2c(Nc3ccc(NC(=O)c4ccccc4)cc3)ncnc2cc1OCCCN1CCOCC1 [GSK301329]
3. C[C@@H](Oc1cc(-n2cnc3cc(-c4ccncc4)ccc32)sc1C(N)=O)c1ccccc1Cl [GSK479719]
4. CC(=O)Nc1nc2cnc(Nc3cc(NC(=O)c4cccc(CC(C)(C)C#N)c4)ccc3C)nc2s1
5. Cl.Cl.NC[C@H](CC1CCCCC1)NC(=O)c1ccc(-c2ccnc3[nH]ccc23)s1 [GSK1581428]
6. O=C(Nc1ccc(Oc2ccc3nc(NC(=O)C4CC4)cn3n2)c(F)c1)c1cccn(-c2ccccc2)c1=O
7. O=C(Nc1cccc(C(F)(F)F)c1)c1cccc(Oc2ccc3nccn3n2)c1
8. O=C(Nc1cccc(Oc2ccc3nccn3n2)c1)Nc1cccc(C(F)(F)F)c1

1: 18; 2: 0; 3: 0; 4: 0; 5: 1; 6: 0; 7: 3; 8: 14

Sure, the documented %Inh for COc1cccc(OC)c1C(=O)Nc1cccc(-c2nn3ccccc3c2-c2ccnc(Nc3cccc(F)c3)n2)c1 [GSK361065] is 19

###

- Test system: ABL1-phosphorylated
- Experimental conditions: concentration: 1 μM,replicates: in singlicate; n = 1
Reported metric: %Inh (%)
One number for each entry, in %.

Answer for every listed entry: what is its %Inh? The entries follow.
1. Cc1ccc2c(-c3ccnc(Nc4ccc(C(F)(F)F)cc4)n3)cnn2n1
2. COc1cccc(CNC(=O)NC2CCN(c3ccnc(Nc4cc(OC)c(OC)c(OC)c4)n3)C2)c1 (stereo not drawn)
3. COc1cc2c(Nc3ccc(NC(=O)c4ccccc4)cc3)ncnc2cc1OCCCN1CCOCC1
4. C[C@@H](Oc1cc(-n2cnc3cc(-c4ccncc4)ccc32)sc1C(N)=O)c1ccccc1Cl
5. O=C1NCCc2[nH]c(-c3ccncc3)cc21

1. 28
2. 0
3. 0
4. 25
5. 0

Give %Inh for each of the items listed below.
1. Cn1ccc2ncnc(Oc3ccc(NC(=O)Nc4cncc(C(F)(F)F)c4)c(Cl)c3)c21
2. CCN1CCN(CCCC(=O)Nc2n[nH]c3nc(-c4ccc(O)cc4)c(Br)cc23)CC1
3. O=C(Nc1ccccc1)c1cccc(Oc2ccc3nccn3n2)c1

35
31
0

%Inh recorded for this compound, O=C(NOCC1CC1)c1cc(Br)c(F)c(F)c1Nc1ccc(I)cc1Cl , is 0
